STUDY TARGET: Integrin alpha-IIb/beta-3 (Homo sapiens, UniProt P05106+P08514)
Sequence (P05106 27-788 limits assumed): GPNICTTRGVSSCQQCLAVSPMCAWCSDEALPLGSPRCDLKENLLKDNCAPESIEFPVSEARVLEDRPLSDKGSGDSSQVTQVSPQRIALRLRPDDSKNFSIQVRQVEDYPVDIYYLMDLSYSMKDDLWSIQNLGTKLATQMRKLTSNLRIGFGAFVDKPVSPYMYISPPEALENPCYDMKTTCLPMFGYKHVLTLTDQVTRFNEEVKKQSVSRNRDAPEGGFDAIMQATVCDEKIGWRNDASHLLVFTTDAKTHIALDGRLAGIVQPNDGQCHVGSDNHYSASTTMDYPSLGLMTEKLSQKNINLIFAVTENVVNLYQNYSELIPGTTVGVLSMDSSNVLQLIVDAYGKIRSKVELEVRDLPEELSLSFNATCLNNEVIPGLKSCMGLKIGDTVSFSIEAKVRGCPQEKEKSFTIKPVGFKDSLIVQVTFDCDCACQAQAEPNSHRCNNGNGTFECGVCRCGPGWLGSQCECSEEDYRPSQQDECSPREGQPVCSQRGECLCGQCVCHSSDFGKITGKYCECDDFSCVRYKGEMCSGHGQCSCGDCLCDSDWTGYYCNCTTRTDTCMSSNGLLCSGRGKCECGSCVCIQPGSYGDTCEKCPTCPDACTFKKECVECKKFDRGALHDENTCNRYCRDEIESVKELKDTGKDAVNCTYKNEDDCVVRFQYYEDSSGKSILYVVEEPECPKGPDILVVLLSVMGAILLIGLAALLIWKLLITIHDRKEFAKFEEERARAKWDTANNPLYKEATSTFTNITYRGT
Sequence (P08514 32-887 limits assumed): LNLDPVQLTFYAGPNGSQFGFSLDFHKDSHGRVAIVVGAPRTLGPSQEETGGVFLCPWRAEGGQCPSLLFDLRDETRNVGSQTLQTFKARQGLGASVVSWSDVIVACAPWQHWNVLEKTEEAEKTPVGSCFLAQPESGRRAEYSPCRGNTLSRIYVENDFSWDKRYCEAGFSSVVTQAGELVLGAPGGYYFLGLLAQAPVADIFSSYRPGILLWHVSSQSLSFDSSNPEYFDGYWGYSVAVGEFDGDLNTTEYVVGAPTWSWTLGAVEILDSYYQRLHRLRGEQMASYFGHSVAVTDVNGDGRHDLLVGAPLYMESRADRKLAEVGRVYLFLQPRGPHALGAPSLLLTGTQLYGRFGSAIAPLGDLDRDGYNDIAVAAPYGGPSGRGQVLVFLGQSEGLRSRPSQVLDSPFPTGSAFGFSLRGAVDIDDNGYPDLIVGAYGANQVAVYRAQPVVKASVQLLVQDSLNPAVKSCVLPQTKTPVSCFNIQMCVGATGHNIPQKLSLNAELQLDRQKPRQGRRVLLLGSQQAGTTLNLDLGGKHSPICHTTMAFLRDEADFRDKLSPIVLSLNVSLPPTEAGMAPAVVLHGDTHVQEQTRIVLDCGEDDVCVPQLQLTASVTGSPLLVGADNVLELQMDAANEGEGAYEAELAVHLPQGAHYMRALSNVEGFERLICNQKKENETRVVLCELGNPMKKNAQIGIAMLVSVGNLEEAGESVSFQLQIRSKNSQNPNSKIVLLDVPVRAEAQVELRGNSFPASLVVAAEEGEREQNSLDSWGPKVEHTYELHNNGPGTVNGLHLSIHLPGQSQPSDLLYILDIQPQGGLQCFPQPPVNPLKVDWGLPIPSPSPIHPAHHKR
Sequence (P08514 891-1039 limits assumed): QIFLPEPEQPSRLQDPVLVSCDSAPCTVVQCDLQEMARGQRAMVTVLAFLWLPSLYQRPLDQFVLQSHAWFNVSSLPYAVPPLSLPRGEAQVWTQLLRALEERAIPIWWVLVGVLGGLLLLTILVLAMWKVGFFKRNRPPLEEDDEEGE
ASSAY SUMMARY: Antagonist activity at GP2b/3a receptor (unknown origin) assessed as inhibition of interaction with fibrinogen after 2 hrs by ELISA
Square brackets hold non-standard residues; d marks the D form. Peptide text beside a SMILES is read from it. pGlu = O=C1CC[C@@H](C(=O)O)N1
EXPERIMENTAL READOUT: IC50 (µM)
Give just the numeric value; µM need not be written.

State the recorded IC50 for this entry: NC(=O)C[C@H](NC(=O)[C@@H]1CCC(=O)N1)C(=O)N[C@@H](Cc1c[nH]c2ccccc12)C(=O)O ([pGlu]-Asn-Trp-OH)
12.5

* * *

STUDY TARGET: Integrin alpha-IIb/beta-3 (Oryctolagus cuniculus) (UniProt Q9TUN4+Q9TUN3)
ASSAY SUMMARY: Antagonist activity at GP2b/3a receptor in New Zealand rabbit platelet-rich plasma assessed as inhibition of ADP-induced platelet aggregation at 100 uM preincubated for 1 min followed by addition of ADP by aggregometer
Square brackets hold non-standard residues; d marks the D form. Peptide text beside a SMILES is read from it. pGlu = O=C1CC[C@@H](C(=O)O)N1
EXPERIMENTAL READOUT: inhibition (%)
Give the value, in units of %, as a plain number.

Consider the molecule O=C(N[C@@H](Cc1c[nH]c2ccc(OCCCCC3CCNCC3)cc12)C(=O)O)c1ccc(F)cc1 and give its measured inhibition.
54.9

Tell me the measured inhibition of O=C(O)[C@H](Cc1c[nH]c2ccc(OCCCCC3CCNCC3)cc12)NS(=O)(=O)c1ccc(Br)cc1 , please.
81.2

Please give the measured inhibition for this molecule: NC(=O)C[C@H](NC(=O)[C@@H]1CCC(=O)N1)C(=O)N[C@@H](Cc1c[nH]c2ccccc12)C(=O)O ([pGlu]-Asn-Trp-OH)
21.4

* * *

STUDY TARGET: Integrin alpha-IIb/beta-3 (Oryctolagus cuniculus) (UniProt Q9TUN4+Q9TUN3)
ASSAY SUMMARY: Antagonist activity at GP2b/3a receptor in New Zealand rabbit platelet-rich plasma assessed as inhibition of ADP-induced platelet aggregation at 500 uM preincubated for 1 min followed by addition of ADP by aggregometer
inhibition reference
Field: value (include unit after the number)

See these solved cases before continuing.
CC(=O)N[C@@H](CC(N)=O)C(=O)N[C@@H](Cc1c[nH]c2ccc(OCCCC3CCNCC3)cc12)C(=O)O = 51.4%
CCCC(=O)N[C@@H](Cc1c[nH]c2ccc(OCCCC3CCNCC3)cc12)C(=O)O = 71.2%

Can you look up the measured inhibition of CCCC(=O)N[C@@H](Cc1c[nH]c2ccc(OCCN3CCN(C)CC3)cc12)C(=O)O for me?
12.4%

Please report the recorded inhibition for O=C(N[C@@H](Cc1c[nH]c2ccc(OCCCN3CCNCC3)cc12)C(=O)O)c1ccccc1 .
82.4%

Fill blank: measured inhibition of the compound CCCC(=O)N[C@@H](Cc1c[nH]c2ccc(OCCCN3CCNCC3)cc12)C(=O)O is ____.
84.3%

* * *

STUDY TARGET: Integrin alpha-IIb/beta-3 (Oryctolagus cuniculus) (UniProt Q9TUN4+Q9TUN3)
ASSAY SUMMARY: Antagonist activity at GP2b/3a receptor in New Zealand rabbit platelet-rich plasma assessed as inhibition of ADP-induced platelet aggregation at 500 uM preincubated for 1 min followed by addition of ADP by aggregometer
EXPERIMENTAL READOUT: inhibition (%)
Form entry: value (%) — number only.

Record excerpt, results attached:
CCCC(=O)N[C@@H](Cc1c[nH]c2ccc(OCCN3CCNCC3)cc12)C(=O)O = 58.3
CCCCS(=O)(=O)N[C@@H](Cc1c[nH]c2ccc(OCCCCN3CCNCC3)cc12)C(=O)O = 61.2
CCCCS(=O)(=O)N[C@@H](Cc1c[nH]c2ccc(OCCCN3CCNCC3)cc12)C(=O)O = 88.9

What measured inhibition goes with O=C(O)[C@H](Cc1c[nH]c2ccc(OCCCN3CCNCC3)cc12)NS(=O)(=O)c1ccccc1 ?
55.3

Which inhibition reading was recorded for the molecule CCCC(=O)N[C@@H](Cc1c[nH]c2ccc(OCCC3CCNCC3)cc12)C(=O)O ?
29.5

Requested read-out: inhibition. Entry: O=C(N[C@@H](Cc1c[nH]c2ccc(OCCCCC3CCNCC3)cc12)C(=O)O)c1ccccc1
96.2

Please look up its inhibition: CCCCS(=O)(=O)N[C@@H](Cc1c[nH]c2ccc(OCCCCC3CCNCC3)cc12)C(=O)O
52.4

Look at this molecule and give its reported inhibition. O=C(O)[C@H](Cc1c[nH]c2ccc(OCCCCN3CCNCC3)cc12)NS(=O)(=O)c1ccccc1
57.5

Using the record for CCCC(=O)N[C@@H](Cc1c[nH]c2ccc(OCCCCN3CCNCC3)cc12)C(=O)O , report its inhibition.
79.1

Any idea what its inhibition is? The molecule is O=C(O)[C@H](Cc1c[nH]c2ccc(OCCCC3CCNCC3)cc12)NS(=O)(=O)c1ccccc1
94.5

* * *

STUDY TARGET: Integrin alpha-IIb/beta-3 (Oryctolagus cuniculus) (UniProt Q9TUN4+Q9TUN3)
ASSAY SUMMARY: Antagonist activity at GP2b/3a receptor in New Zealand rabbit platelet-rich plasma assessed as inhibition of ADP-induced platelet aggregation at 500 uM preincubated for 1 min followed by addition of ADP by aggregometer
Square brackets hold non-standard residues; d marks the D form. Peptide text beside a SMILES is read from it. pGlu = O=C1CC[C@@H](C(=O)O)N1
Entry flag: Met if inhibition reaches 50%; Not met if it does not.

Look over these answered cases.
NC(=O)C[C@H](NC(=O)[C@@H]1CCC(=O)N1)C(=O)N[C@@H](Cc1c[nH]c2ccccc12)C(=O)O ([pGlu]-Asn-Trp-OH) = Not met
CC(=O)N[C@@H](CC(N)=O)C(=O)N[C@@H](Cc1c[nH]c2ccccc12)C(=O)O (Ac-Asn-Trp-OH) = Not met
CCCC(=O)N[C@@H](Cc1c[nH]c2ccc(OCCCN3CCN(C)CC3)cc12)C(=O)O = Not met
O=C(N[C@@H](Cc1c[nH]c2ccc(OCCCCN3CCNCC3)cc12)C(=O)O)c1ccccc1 = Met
O=C(O)[C@H](Cc1c[nH]c2ccc(OCCCCC3CCNCC3)cc12)NS(=O)(=O)c1ccccc1 = Met

inhibition >= 50% for CCCCS(=O)(=O)N[C@@H](Cc1c[nH]c2ccc(OCCCC3CCNCC3)cc12)C(=O)O ?
Met

Hi team, for CCCC(=O)N[C@@H](Cc1c[nH]c2ccc(OCCCCC3CCNCC3)cc12)C(=O)O , is the recorded inhibition at or above 50%?
Met

Answer whether inhibition of O=C(N[C@@H](Cc1c[nH]c2ccc(OCCCC3CCNCC3)cc12)C(=O)O)c1ccccc1 is greater than or equal to 50%.
Met

* * *

STUDY TARGET: Integrin alpha-IIb/beta-3 (Oryctolagus cuniculus) (UniProt Q9TUN4+Q9TUN3)
ASSAY SUMMARY: Antagonist activity at GP2b/3a receptor in New Zealand rabbit platelet-rich plasma assessed as inhibition of ADP-induced platelet aggregation at 100 uM preincubated for 1 min followed by addition of ADP by aggregometer
Listing of entries alongside the reported inhibition.
Numeric only. Scale: %

Use these answered entries as a reference point.
COc1ccc(C(=O)N[C@@H](Cc2c[nH]c3ccc(OCCCCC4CCNCC4)cc23)C(=O)O)cc1 = 38.3
Cc1ccc(S(=O)(=O)N[C@@H](Cc2c[nH]c3ccc(OCCCCC4CCNCC4)cc23)C(=O)O)cc1 = 43.1
O=C(N[C@@H](Cc1c[nH]c2ccc(OCCCCC3CCNCC3)cc12)C(=O)O)c1cccc(F)c1 = 53.4
O=C(N[C@@H](Cc1c[nH]c2ccc(OCCCCC3CCNCC3)cc12)C(=O)O)c1cc(Cl)cc(Cl)c1 = 62.7
O=C(O)[C@H](Cc1c[nH]c2ccc(OCCCCC3CCNCC3)cc12)NS(=O)(=O)c1ccc([N+](=O)[O-])cc1 = 45.3

Which inhibition value belongs to O=C(O)[C@H](Cc1c[nH]c2ccc(OCCCCC3CCNCC3)cc12)NS(=O)(=O)c1ccccc1 ?
53.8

Given the entry O=C(N[C@@H](Cc1c[nH]c2ccc(OCCCCC3CCNCC3)cc12)C(=O)O)c1ccccc1 , report its measured inhibition.
27.9

State the recorded inhibition for this entry: O=C(O)[C@H](Cc1c[nH]c2ccc(OCCCCC3CCNCC3)cc12)NS(=O)(=O)c1ccc(F)cc1
57.1

I would be grateful if you could share the reported inhibition for O=C(N[C@@H](Cc1c[nH]c2ccc(OCCCCC3CCNCC3)cc12)C(=O)O)c1ccc([N+](=O)[O-])cc1 .
43.5

I have this compound here, COc1ccc(S(=O)(=O)N[C@@H](Cc2c[nH]c3ccc(OCCCCC4CCNCC4)cc23)C(=O)O)cc1 , and I need its recorded inhibition.
39.3

Data provenance: ChEMBL document CHEMBL3621042
